The following are reported AC50 results, target or system Mu-type opioid receptor (Homo sapiens, UniProt P35372). Also: assay procedure not described here.

[[record]]
compound = "C[N+](C)(C)CCOC(=O)CCC(=O)OCC[N+](C)(C)C [SUXAMETHONIUM]"
observation_type = "AC50"
experimental_result = "> 30 µM"

[[record]]
compound = "Nc1cccc2c1C(=O)N(C1CCC(=O)NC1=O)C2=O (centres undefined) [POMALIDOMIDE]"
observation_type = "AC50"
experimental_result = "> 30 µM"

[[record]]
compound = "Cc1cc(C2CCCCC2)n(O)c(=O)c1 [CICLOPIROX]"
observation_type = "AC50"
experimental_result = "> 30 µM"

[[record]]
compound = "CC(COc1ccccc1)NC(C)C(O)c1ccc(O)cc1 (centres undefined) [ISOXSUPRINE]"
observation_type = "AC50"
experimental_result = "8.69 µM"

[[record]]
compound = "COc1cc(C)c2c(Oc3cccc(C(F)(F)F)c3)c(OC)cc(NC(C)CCCN)c2n1 (centres undefined) [TAFENOQUINE]"
observation_type = "AC50"
experimental_result = "20.6 µM"


Task item: Which measured AC50 value corresponds to Cc1cc(=O)oc2cc(O)ccc12 [HYMECROMONE] ?
Reply: > 30 µM

Task item: CC(=O)OCC(=O)[C@@]1(O)CC[C@H]2[C@@H]3CCC4=CC(=O)CC[C@]4(C)[C@H]3[C@@H](O)C[C@@]21C [HYDROCORTISONE ACETATE] ?
Reply: > 30 µM

Task item: CCCCc1oc2ccc(NS(C)(=O)=O)cc2c1C(=O)c1ccc(OCCCN(CCCC)CCCC)cc1 [DRONEDARONE] ?
Reply: 3.09 µM

Task item: C[C@@H]1C[C@H]2[C@@H]3C[C@H](F)C4=CC(=O)C=C[C@]4(C)[C@H]3[C@@H](O)C[C@]2(C)[C@@]1(O)C(=O)CO [PARAMETHASONE] ?
Reply: > 30 µM

Task item: CN(C)c1ccc(O)c2c1C[C@H]1C[C@H]3[C@H](N(C)C)C(O)=C(C(N)=O)C(=O)[C@@]3(O)C(O)=C1C2=O [MINOCYCLINE] ?
Reply: > 30 µM

Task item: CC[C@H]1OC(=O)[C@H](C)[C@@H](O[C@H]2C[C@@](C)(OC)[C@@H](O)[C@H](C)O2)[C@H](C)[C@@H](O[C@@H]2O[C@H](C)C[C@H](N(C)C)[C@H]2O)[C@](C)(O)C[C@@H](C)[C@@H]2N[C@@H](COCCOC)O[C@H]([C@H]2C)[C@]1(C)O [DIRITHROMYCIN] ?
Reply: > 30 µM

Task item: O=C(O)Cc1ccccc1Nc1c(Cl)cccc1Cl [DICLOFENAC] ?
Reply: > 3 µM

Task item: C=CC(=O)Nc1cccc(Oc2nc(Nc3ccc(N4CCN(C)CC4)cc3)nc3ccsc23)c1 [OLMUTINIB] ?
Reply: 5.5 µM

Task item: Cc1ccc(C)c(OCCCC(C)(C)C(=O)O)c1 [GEMFIBROZIL] ?
Reply: > 30 µM

###

# assay_target: Mu-type opioid receptor (Homo sapiens, UniProt P35372); also: assay procedure not described here
# Sequence (P35372 whole entry): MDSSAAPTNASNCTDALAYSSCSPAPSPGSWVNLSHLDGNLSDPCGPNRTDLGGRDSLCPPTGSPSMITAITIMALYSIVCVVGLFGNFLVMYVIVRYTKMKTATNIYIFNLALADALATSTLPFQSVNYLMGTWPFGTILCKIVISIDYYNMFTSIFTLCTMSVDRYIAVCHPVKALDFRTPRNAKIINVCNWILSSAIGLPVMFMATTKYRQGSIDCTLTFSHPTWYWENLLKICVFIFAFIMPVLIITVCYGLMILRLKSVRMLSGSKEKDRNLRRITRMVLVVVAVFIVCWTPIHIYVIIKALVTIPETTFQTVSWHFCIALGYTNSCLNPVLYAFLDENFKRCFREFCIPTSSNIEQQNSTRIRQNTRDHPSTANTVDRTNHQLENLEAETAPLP
AC50 values by entry

The cases that follow already have their AC50 on record.
[[record]]
molecule = "NC[C@H]1CC[C@H](C(=O)Oc2ccc(CCC(=O)O)cc2)CC1 [CETRAXATE]"
experimental_result = "> 30 µM"

[[record]]
molecule = "C[N+]1(C)CCCC(OC(=O)C(O)(c2ccccc2)c2ccccc2)C1 (centres undefined) [MEPENZOLATE]"
experimental_result = "> 30 µM"

[[record]]
molecule = "CC[C@@H]1C[C@]1(NC(=O)[C@@H]1C[C@@H]2CN1C(=O)[C@H](C(C)(C)C)NC(=O)OCC(C)(C)CCCCc1cccc3c1CN(C3)C(=O)O2)C(=O)NS(=O)(=O)C1CC1"
experimental_result = "> 30 µM"


Task item: Item "c1ccc2c(SC3=NCCN3)c[nH]c2c1" with Mu-type opioid receptor (Homo sapiens, UniProt P35372) - AC50?
Reply: > 30 µM

###

The following are reported AC50 results, target or system Sodium-dependent noradrenaline transporter (Homo sapiens, UniProt P23975). Also: assay procedure not described here.

[[record]]
molecule = "C[C@@H]1C[C@H]2[C@@H]3CCC4=CC(=O)C=C[C@]4(C)[C@@]3(F)[C@@H](O)C[C@]2(C)[C@@]1(O)C(=O)CO"
observation_type = "AC50"
experimental_result = "> 30 µM"


Task item: Which measured AC50 value corresponds to CC(C)(Oc1ccc(CCNC(=O)c2ccc(Cl)cc2)cc1)C(=O)O [BEZAFIBRATE] ?
Reply: > 10 µM

Task item: "CCOc1nc2cccc(C(=O)O)c2n1Cc1ccc(-c2ccccc2-c2nnn[nH]2)cc1" ?
Reply: > 30 µM

Task item: "Oc1ccc(CCNCCCCCCNCCc2ccccc2)cc1O" ?
Reply: 0.4 µM

Task item: Cc1cccc(C)c1NC(=O)CC12CCCN1CCC2 [PILSICAINIDE] ?
Reply: > 30 µM

Task item: "CC(=O)Nc1ccc(CC(=O)O)cc1" ?
Reply: > 30 µM

Task item: "Cc1nc(Nc2ncc(C(=O)Nc3c(C)cccc3Cl)s2)cc(N2CCN(CCO)CC2)n1" ?
Reply: 6.3 µM

Task item: COC(=O)C1=C(C)NC(C)=C(C(=O)OCCN2CCN(C(c3ccccc3)c3ccccc3)CC2)C1c1cccc([N+](=O)[O-])c1 (stereo not drawn) ?
Reply: > 30 µM

Task item: "O=C(O)Cc1ccccc1Oc1ccc(Cl)cc1Cl" ?
Reply: > 10 µM

Task item: "CCC1(CCC(C)C)C(=O)NC(=O)NC1=O" ?
Reply: > 10 µM

Task item: "OC[C@H]1O[C@@H](Oc2cc(O)cc(/C=C/c3ccc(O)cc3)c2)[C@H](O)[C@@H](O)[C@@H]1O" ?
Reply: > 30 µM

Task item: CC(=O)c1ccc(S(=O)(=O)NC(=O)NC2CCCCC2)cc1 [ACETOHEXAMIDE] ?
Reply: > 10 µM

Task item: "CCOC(=O)c1c(CSc2ccccc2)n(C)c2cc(Br)c(O)c(CN(C)C)c12" ?
Reply: 21 µM

Task item: "CN[C@@H](C)[C@@H](O)c1ccccc1" ?
Reply: > 10 µM

Task item: O=C(O)CCNC(=O)c1ccc(/N=N/c2ccc(O)c(C(=O)O)c2)cc1 [BALSALAZIDE] ?
Reply: > 30 µM

Task item: "O=S1(=O)CCN(CN2CCS(=O)(=O)NC2)CN1" ?
Reply: > 30 µM

Task item: "CCC[C@@H]1C[C@@H](C(=O)N[C@@H]([C@H]2O[C@H](SC)[C@H](O)[C@@H](O)[C@H]2O)[C@@H](C)O)N(C)C1" ?
Reply: > 10 µM

Task item: "COc1ccc([C@@H]2CC(=O)c3c(O)cc(O)cc3O2)cc1O" ?
Reply: > 10 µM

###

The following are reported AC50 results, target or system UniProt P35372.

[[record]]
molecule = "CCCSc1nc(N[C@@H]2C[C@H]2c2ccc(F)c(F)c2)c2nnn([C@@H]3C[C@H](OCCO)[C@@H](O)[C@H]3O)c2n1"
experimental_result = "> 30 µM"

[[record]]
molecule = "Cc1ccccc1C(=O)Nc1ccc(C(=O)N2CCCC(O)c3cc(Cl)ccc32)c(C)c1 (stereo unspecified)"
experimental_result = "6.71 µM"

[[record]]
molecule = "C[N+](C)(CCCCCC[N+](C)(C)C1c2ccccc2-c2ccccc21)C1c2ccccc2-c2ccccc21"
experimental_result = "1.03 µM"

[[record]]
molecule = "COc1c2occc2c(OC)c2c(=O)cc(C)oc12"
experimental_result = "> 30 µM"

[[record]]
molecule = "COC(=O)C[C@](O)(CCCC(C)(C)O)C(=O)O[C@@H]1C(OC)=C[C@]23CCCN2CCc2cc4c(cc2[C@H]13)OCO4 [OMACETAXINE MEPESUCCINATE]"
experimental_result = "> 30 µM"


Task item: Item CN[C@@H]1[C@H](O[C@H]2[C@H](O[C@H]3[C@H](O)[C@@H](O)[C@H](NC(=N)N)[C@@H](O)[C@@H]3NC(=N)N)O[C@@H](C)[C@]2(O)CO)O[C@@H](CO)[C@H](O)[C@H]1O [DIHYDROSTREPTOMYCIN] with UniProt P35372 - AC50?
Reply: > 30 µM

Task item: "Cc1cc(=O)[nH]c(=S)[nH]1" ?
Reply: > 30 µM

Task item: C[C@H]1O[C@@H](O[C@H]2CC[C@@]3(C)[C@H](CC[C@@H]4[C@@H]3C[C@@H](O)[C@]3(C)[C@@H](C5=CC(=O)OC5)CC[C@]43O)C2)C[C@H](O)[C@@H]1O[C@H]1C[C@H](O)[C@H](O[C@H]2C[C@H](O)[C@H](O[C@@H]3O[C@H](CO)[C@@H](O)[C@H](O)[C@H]3O)[C@@H](C)O2)[C@@H](C)O1 [DESLANOSIDE] ?
Reply: > 30 µM

Task item: CCCCC1C(=O)N(c2ccccc2)N(c2ccc(O)cc2)C1=O (stereo unspecified) [OXYPHENBUTAZONE ANHYDROUS] ?
Reply: > 30 µM

Task item: CC1(C)O[C@@H]2C[C@H]3[C@@H]4C[C@H](F)C5=CC(=O)C=C[C@]5(C)[C@@]4(F)[C@@H](O)C[C@]3(C)[C@]2(C(=O)CO)O1 [FLUOCINOLONE ACETONIDE] ?
Reply: > 30 µM

Task item: "COc1cccc(C(=O)CCN[C@@H](C)[C@H](O)c2ccccc2)c1" ?
Reply: 2.7 µM

Task item: C[C@@H]1C[C@H]2[C@@H]3C[C@H](F)C4=CC(=O)C=C[C@]4(C)[C@@]3(F)[C@@H](O)C[C@]2(C)[C@@]1(OC(=O)c1ccco1)C(=O)SCF [FLUTICASONE FUROATE] ?
Reply: > 30 µM
